System tested: ERR1 (also known as ERR-α or ERR-1) (Homo sapiens, UniProt P11474)
Construct: the ^6His-tagged-ERR1 LBD
Sequence (P11474 193-421 limits assumed): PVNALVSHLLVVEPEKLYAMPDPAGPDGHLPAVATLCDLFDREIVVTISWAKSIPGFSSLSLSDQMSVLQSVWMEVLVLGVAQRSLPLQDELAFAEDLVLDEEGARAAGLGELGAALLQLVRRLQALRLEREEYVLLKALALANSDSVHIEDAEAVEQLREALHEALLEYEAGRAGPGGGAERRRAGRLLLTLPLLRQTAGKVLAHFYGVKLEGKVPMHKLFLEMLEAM
Protocol description: TR-FRET assay: disruption of co-activator peptide binding to ERR1 LBD
Test context: 6His-tagged ERR1 LBD 6 nM, GST-SRC-2 peptide 6 nM, 25° C., 4-18 hours; average of 3 independent experiments
Counter-ions that a name gives are not always drawn.
# reported EC50; entries follow
Kindly answer with a numeric value in nM, unit omitted.

Consider the following illustrative entries.
| Molecule | EC50 (nM) |
| --- | --- |
| COc1cc(/C=C2\SC(N3CCCC(O)C3)=NC2=O)ccc1Oc1ccc(C#N)cc1C(F)(F)F (stereo not shown) | 29 |
| COc1cc(/C=C2\SC(N)=NC2=O)ccc1Oc1ccc(C#N)cc1Cl | 210 |
| N#Cc1ccc(Oc2ccc(/C=C3\SC(N4CCNC(=O)C4)=NC3=O)cc2F)c(C(F)(F)F)c1 | 19 |

Which EC50 is listed for COc1cc(/C=C2\SC(N3CCN(C)C(=O)C3)=NC2=O)ccc1Oc1ccc(C#N)cc1C(F)(F)F ?
8

Which EC50 is listed for COc1cc(/C=C2\SC(NCC(O)CN)=NC2=O)ccc1Oc1ccc(C#N)cc1C(F)(F)F (stereo not shown) ?
89

Which EC50 is listed for COc1cc(/C=C2\SC(N(CCO)CCO)=NC2=O)ccc1Oc1ccc(C#N)cc1C(F)(F)F ?
25

Which EC50 is listed for COc1cc(/C=C2\SC(N3CCC(C(N)=O)CC3)=NC2=O)ccc1Oc1ccc(C#N)cc1C(F)(F)F ?
14

Which EC50 is listed for COc1cc(/C=C2\SC(NCCN)=NC2=O)ccc1Oc1ccc(C#N)cc1C(F)(F)F [Example 87, HCl salt] ?
22

Which EC50 is listed for COc1cc(/C=C2\SC(NCc3ccncc3)=NC2=O)ccc1Oc1ccc(C#N)cc1C(F)(F)F ?
16

Which EC50 is listed for CCOc1cc(/C=C2\SC(N(CCO)CCO)=NC2=O)ccc1Oc1ccc(C#N)cc1C(F)(F)F ?
150

Which EC50 is listed for CNC1=NC(=O)/C(=C/c2ccc(Oc3ccc(C#N)cc3C(F)(F)F)c(OC)c2)S1 ?
16

Which EC50 is listed for N#Cc1ccc(Oc2ccc(/C=C3\SC(N4CC(C(=O)O)C4)=NC3=O)cc2F)c(C(F)(F)F)c1 ?
34

Which EC50 is listed for N#Cc1ccc(Oc2ccc(/C=C3\SC(NC4CC4)=NC3=O)cc2F)c(C(F)(F)F)c1 ?
52

Which EC50 is listed for COc1cc(/C=C2\SC(N3CCCC(O)C3)=NC2=O)ccc1Oc1ccc(C(N)=O)cc1C(F)(F)F (stereo not shown) ?
300

Which EC50 is listed for COc1cc(/C=C2\SC(NCCN3CCCC3)=NC2=O)ccc1Oc1ccc(C#N)cc1C(F)(F)F ?
32

Which EC50 is listed for O=C1N=C(NCCCN2CCCC2=O)S/C1=C\c1ccc(Oc2ccc(Cl)cc2C(F)(F)F)c(F)c1 ?
3

* * *

System tested: ERR1 (also known as ERR-α or ERR-1) (Homo sapiens, UniProt P11474)
Construct: the ^6His-tagged-ERR1 LBD
Protocol description: TR-FRET assay: disruption of co-activator peptide binding to ERR1 LBD
Type: biochemical
Test context: 6His-tagged ERR1 LBD 6 nM, GST-SRC-2 peptide 6 nM, 25° C., 4-18 hours; average of 3 independent experiments
Experimental: Time-Resolved Fluorescence Resonance Energy Transfer (TR-FRET) experiments were performed to examine the functional response of ERR1 (also known as ERR-α or ERR-1) ligands. The TR-FRET assay described herein relied on the conformation of ERR1 for binding to a co-activator peptide: when a test compound binds to ERR1 and alters its conformation, it can disrupt the binding of the co-activator peptide. […]
# reported EC50; entries follow
Kindly answer with a numeric value in nM, unit omitted.

| Smiles input | EC50, nM |
| --- | --- |
| COc1cc(/C=C2\SC(NCc3nnn[nH]3)=NC2=O)ccc1Oc1ccc(C#N)cc1C(F)(F)F | 5 |
| CN1CCN(CCNC2=NC(=O)/C(=C/c3ccc(Oc4ccc(C#N)cc4C(F)(F)F)c(F)c3)S2)CC1 | 22 |
| COc1cc(/C=C2\SC(NCc3cccnc3)=NC2=O)ccc1Oc1ccc(C#N)cc1C(F)(F)F | 18 |
| COc1cc(/C=C2\SC(NC[C@@H](O)CO)=NC2=O)ccc1Oc1ccc(C#N)cc1C(F)(F)F | 19 |
| N#Cc1ccc(Oc2ccc(/C=C3\SC(NCCF)=NC3=O)cc2F)c(C(F)(F)F)c1 | 25 |

Which EC50 is listed for COc1cc(/C=C2\SC(NCCCN3CCOCC3)=NC2=O)ccc1Oc1ccc(C#N)cc1C(F)(F)F ?
11

Which EC50 is listed for CCOc1cc(/C=C2\SC(N3CC(C(=O)O)C3)=NC2=O)ccc1Oc1ccc(C#N)cc1C(F)(F)F ?
16

Hey, just so you know, these numbers are from patent US8580832B2.
